Target: KRAS G12C (Homo sapiens, UniProt P01116, G12C)
Sequence (P01116 1-188 isoform P01116-2 G12C): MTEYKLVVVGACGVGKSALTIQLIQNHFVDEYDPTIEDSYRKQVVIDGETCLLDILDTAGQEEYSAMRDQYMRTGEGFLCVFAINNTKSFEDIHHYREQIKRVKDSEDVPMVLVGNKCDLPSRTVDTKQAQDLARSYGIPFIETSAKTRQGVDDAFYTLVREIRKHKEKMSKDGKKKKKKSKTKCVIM
Experiment: GDP-GTP exchange assay (KRAS_G12C exchange)
Settings: bodipy-GDP loaded KRAS G12C 2.5 nM, SOS1 150 nM, GppNHp; 2 hours pre-incubation, 2 hours reaction; read-out: G12C_exchange
Below, each of the compounds is paired with its reported IC50 value.

Example cases with answers are listed next.
1) C=CC(=O)N1CC[C@H](n2nnc3c(OC[C@@H]4CCCN4C)nc4c(F)c(-c5cccc(C)c5C)c(C)cc4c32)C[C@H]1CC#N [Example 137] : ≤ 100 nM
2) C=CC(=O)N1CC[C@H](n2cnc3c(N4CC(N(C)C)C4)nc4c(F)c(-c5cccc(C)c5C(F)(F)F)c(Cl)cc4c32)C[C@H]1CC#N [Example 264] : ≤ 100 nM

Q. State recorded IC50 with KRAS G12C (Homo sapiens, UniProt P01116, G12C), entry C=CC(=O)N1CC[C@H](n2cnc3c(N4CC(N(C)C)C4)nc4c(F)c(-c5cccc(C)c5Cl)c(Cl)cc4c32)C[C@H]1CC#N [Example 19] , no comment.
A. ≤ 100 nM

Attribution: patent US20210269434A1
